# assay-notes: Distribution of compound in sebaceous glands and blood of golden hamsters after single skin application
# Format: in vivo
# test-settings: male, hamster, sebaceous glands (left and right), topical, 4 mg, left and right sebaceous glands, dose 4 mg, 8 h; read-out: Concentration mean in sebaceous glands
property: concentration at 8 h (ng/mL)

input-smiles: Cc1ncsc1-c1ccc(CNC(=O)[C@@H]2C[C@@H](O)CN2C(=O)[C@@H](NC(=O)COCCCCOc2ccc(-c3ccc(N4C(=S)N(c5ccc(C#N)c(C(F)(F)F)c5F)C(=O)C4(C)C)cn3)cc2)C(C)(C)C)cc1
property: concentration at 8 h
units-symbol: ng/mL
quantitative-readout: 24200

Hey, just so you know, these numbers are from patent US20250129062A1.
